Note to self: these molecules have IC50 reported for Serine/threonine-protein kinase mTOR (Homo sapiens, UniProt P42345) in various publications.

Worked set:
INSERT INTO assay_data (molecule, result) VALUES
  ('CCOc1cc(-c2ccc3ncc4c(c3c2)n(-c2cn(C)nc2C)c(=O)n4C)cnc1CC', '8 nM'),
  ('Cc1nn(CC(=O)N2CCOCC2)cc1-n1c(=O)n(C)c2cnc3ccc(-c4cnc(N5CCCC5)nc4)cc3c21', '28 nM'),
  ('CN(C)C(=O)c1ccc(NC(=O)Nc2ccc(-c3nc(N4CCOCC4)c4ncc(-c5cccnc5F)cc4n3)cc2)cc1', '< 50 nM'),
  ('Cc1ccncc1-c1cnc2c(N3CCOCC3)nc(-c3ccc(NC(=O)Nc4ccc(C(=O)N(C)C)cc4)c(F)c3)nc2c1', '50 to 200 nM'),
  ('CC(C)Cn1c(N2CCN(C(=O)C[C@@H](C)O)[C@@H](C)C2)nc2c(N3CCOCC3)nc(-c3cnc(N)nc3)nc21', '< 10 nM');

Asked: Name the reported IC50 value associated with the molecule CCC(C)n1c(NCCN(C)C)nc2c(-c3cccc(O)c3)nc(N3CCOCC3)nc21 (stereo not shown)
Given back: < 1000 nM

Asked: Name the reported IC50 value associated with the molecule O=c1[nH]c2ncc(-c3cnc4[nH]ccc4c3)cc2n1C[C@@H]1COC[C@H]1O (racemic)
Given back: < 50 nM

----------
Note to self: these molecules have IC50 reported for Serine/threonine-protein kinase mTOR (Homo sapiens) in various publications.

Worked set:
INSERT INTO assay_data (cpd_smiles, tested_on, result) VALUES
  ('COc1ccc(-c2ccc3ncc4c(c3c2)n(-c2cn(C)nc2C)c(=S)n4C)cc1OC', 'Serine/threonine-protein kinase mTOR (Homo sapiens)', '12 nM'),
  ('Cc1nn(C)cc1-n1c(=O)n(C)c2cnc3ccc(-c4cncc(C5(C#N)CCC5)c4)cc3c21', 'Serine/threonine-protein kinase mTOR (Homo sapiens)', '32 nM'),
  ('O=C1CCNc2c1c(C1CCN(C(=O)c3nnc[nH]3)CC1)nc1c(-c3ccc(-c4ccccc4)nc3)cnn21', 'Serine/threonine-protein kinase mTOR (Homo sapiens)', '< 10 nM'),
  ('Cc1nc(N)ncc1-c1nc(N2CCOCC2)c2nc(N3CCC(CO)CC3)n(CC3CC3)c2n1', 'Serine/threonine-protein kinase mTOR (Homo sapiens)', '100 to 500 nM'),
  ('CNC(=O)c1cccc(-c2cnc3c(N4CCOCC4)nc(-c4cnc(N)nc4)nc3c2)c1', 'Serine/threonine-protein kinase mTOR (Homo sapiens)', '50 to 200 nM'),
  ('CCOC(C)(C)c1cncc(-c2ccc3ncc4c(c3c2)n(-c2cn(C)nc2C)c(=O)n4C)c1', 'Serine/threonine-protein kinase mTOR (Homo sapiens)', '79 nM');

Proceeding to the next molecule to report its IC50.
Asked: Find IC50 (Serine/threonine-protein kinase mTOR (Homo sapiens)) for the entry `CC(C)Cn1c(N2CCN(C(=O)C[C@H](C)O)CC2)nc2c(N3CCOCC3)nc(-c3cnc(N)nc3)nc21`
Given back: 10 to 30 nM

----------
Note to self: these compounds have pIC50 reported for Serine/threonine-protein kinase mTOR (Homo sapiens, UniProt P42345) in various publications.
pIC50: −log10 of the molar value.

Worked set:
INSERT INTO results (compound, result) VALUES
  ('CCC(C)n1c(NC(C)C)nc2c(-c3cccc(O)c3)nc(N3CCOCC3)nc21 (stereo not shown)', '> 6.00'),
  ('COc1ncc(-c2ccc3ncc4nnc(CN(C)C)n4c3c2)cc1NS(=O)(=O)C(F)(F)F', '> 7.00'),
  ('COc1ncc(-c2ccc3nccc(=O)n3c2)cc1NS(=O)(=O)c1ccc(F)cc1Cl', '7.30 to 8.00'),
  ('c1cc2ccc(-c3nc(N4CCOCC4)nc4c3ncn4CC3CC3)cc2[nH]1', '> 6.00'),
  ('CCOc1cncc(-c2ccc3ncc4c(c3c2)n(-c2c(C)cnn2C)c(=O)n4C)c1', 6.12);

Proceeding to the next compound to report its pIC50.
Asked: Name the reported pIC50 value associated with the compound `CNC(=O)Nc1ccc(-c2nc3c(c(N4CCOC[C@@H]4C)n2)CS(=O)(=O)C3)cc1`
Given back: > 7.00

----------
Note to self: these compounds have pIC50 reported for Serine/threonine-protein kinase mTOR (Homo sapiens, UniProt P42345) in various publications.
pIC50: −log10 of the molar value.

Worked set:
INSERT INTO results (cpd_smiles, readout_name, result) VALUES
  ('COc1cc(-c2cccc(NS(=O)(=O)CCCF)c2F)cc2c(N3CCOCC3)nc(-c3ccc(NS(C)(=O)=O)cc3)nc12', 'pIC50', '6.00 to 7.00'),
  ('CN(C)CCNC(=O)c1ccc(-c2ccc3c(N4CCOCC4)nc(-c4ccc(NC(=O)Nc5ccc(C(=O)N(C)C)cc5)cc4)nc3c2)o1', 'pIC50', '> 7.30'),
  ('Cc1nn(C)cc1-n1c(=O)n(C)c2cnc3ccc(-c4ccc5c(c4)CC(=O)N5)cc3c21', 'pIC50', 7.34);

Asked: Name the reported pIC50 value associated with the compound `CCOc1cc(-c2ccc3ncc4c(c3c2)n(-c2cn(C)nc2C)c(=O)n4C)cnc1COC`
Given back: 7.41

Asked: Name the reported pIC50 value associated with the compound `C[C@@H]1COCCN1c1nc(-c2ccc(N)nc2)nc2c(OC3CCCC3)cc(-c3cccc(NS(=O)(=O)CCCF)c3F)cc12`
Given back: 7.00 to 9.00

Asked: Name the reported pIC50 value associated with the compound `O=[N+]([O-])c1cccc(Cn2cnc3c(-c4cccc(O)c4)nc(N4CCOCC4)nc32)c1`
Given back: > 6.00

Asked: Name the reported pIC50 value associated with the compound `CCNC(=O)Nc1ccc(-c2nc3c(c(N4CCOC[C@@H]4CC)n2)[C@@H](C)S(=O)(=O)C3)cc1`
Given back: > 7.00

----------
Note to self: these compounds have IC50 reported for Serine/threonine-protein kinase mTOR (Homo sapiens) in various publications.

Worked set:
INSERT INTO results (compound, result) VALUES
  ('CN(C)CCNC(=O)c1ccc(NC(=O)Nc2ccc(-c3nc(N4CCOCC4)c4ccc(-c5cncnc5)cc4n3)cc2)cc1', '< 50 nM'),
  ('CN(C)C1CCN(C(=O)c2ccc(NC(=O)Nc3ccc(-c4nc(N5CCOCC5)c5ncc(-c6cccnc6F)cc5n4)cc3F)cc2)C1 (stereo in doubt)', '< 50 nM'),
  ('CC1(C)CN(c2nc3c(N4CCOCC4)nc(-c4cnc(N)nc4)nc3n2CC(F)(F)F)CCN1C(=O)CO', '< 10 nM');

Asked: Name the reported IC50 value associated with the compound `COc1ncc(-c2ccc3ncc4ccc(=O)n(-c5cccc(C(F)(F)F)c5)c4c3n2)cn1`
Given back: 4.4 nM

Asked: Name the reported IC50 value associated with the compound `COc1ncc(-c2ccc3ncc(Cl)c(=O)n3c2)cc1NS(=O)(=O)c1ccc(F)cc1Cl`
Given back: 1 to 10 nM

Asked: Name the reported IC50 value associated with the compound `CC(=O)Nc1ccc(S(=O)(=O)c2cc(-c3cnc(N)nc3)cc(N3CCOCC3)c2)cc1`
Given back: 8690 nM

Asked: Name the reported IC50 value associated with the compound CCC1COCCN1c1nc(-c2ccc(NC(=O)NC3CC3)cc2)nc2c1CS(=O)(=O)C2 (stereo not shown)
Given back: < 100 nM

----------
Note to self: these compounds have pIC50 reported for Serine/threonine-protein kinase mTOR (Homo sapiens, UniProt P42345) in various publications.
pIC50: −log10 of the molar value.

INSERT INTO measurements (compound, result) VALUES
  ('Nc1ncc(-c2nc(N3CCOCC3)c3ncc(-c4cccc(NS(=O)(=O)c5ccc(F)cc5)c4)cc3n2)cn1', '> 7.30'),
  ('CCNC(=O)Nc1ccc(-c2nc(N3CCOC[C@@H]3C)c3c(n2)C(C)(C)S(=O)(=O)C3C)cc1 (stereo partly shown)', '> 7.00'),
  ('CN(C)C(=O)c1ccc(NC(=O)Nc2ccc(-c3nc(N4CCOCC4)c4cccc(-c5ccc(F)nc5)c4n3)cc2)cc1', '> 7.30'),
  ('COCC(C)n1cnc2c(-c3cccc4[nH]ccc34)nc(N3CCOCC3)nc21 (stereo not shown)', '> 6.00'),
  ('CC1(CN2CCC(n3cnc4cnc5ccc(-c6cnc(N)c(C(F)(F)F)c6)nc5c43)CC2)COC1', '> 7.00');

Asked: Name the reported pIC50 value associated with the compound `COc1ncc(-c2ccc3ncc4c(c3c2)n(-c2cn(C)nc2C)c(=O)n4C)cc1N`
Given back: 8.30

Asked: Name the reported pIC50 value associated with the compound `COc1ccc(-c2ccc3ncc4c(c3c2)n(-c2c(C)nn(C)c2C)c(=O)n4C)cn1`
Given back: 6.35
